Target: 5'-nucleotidase (Homo sapiens, UniProt P21589)
Sequence (P21589 whole entry): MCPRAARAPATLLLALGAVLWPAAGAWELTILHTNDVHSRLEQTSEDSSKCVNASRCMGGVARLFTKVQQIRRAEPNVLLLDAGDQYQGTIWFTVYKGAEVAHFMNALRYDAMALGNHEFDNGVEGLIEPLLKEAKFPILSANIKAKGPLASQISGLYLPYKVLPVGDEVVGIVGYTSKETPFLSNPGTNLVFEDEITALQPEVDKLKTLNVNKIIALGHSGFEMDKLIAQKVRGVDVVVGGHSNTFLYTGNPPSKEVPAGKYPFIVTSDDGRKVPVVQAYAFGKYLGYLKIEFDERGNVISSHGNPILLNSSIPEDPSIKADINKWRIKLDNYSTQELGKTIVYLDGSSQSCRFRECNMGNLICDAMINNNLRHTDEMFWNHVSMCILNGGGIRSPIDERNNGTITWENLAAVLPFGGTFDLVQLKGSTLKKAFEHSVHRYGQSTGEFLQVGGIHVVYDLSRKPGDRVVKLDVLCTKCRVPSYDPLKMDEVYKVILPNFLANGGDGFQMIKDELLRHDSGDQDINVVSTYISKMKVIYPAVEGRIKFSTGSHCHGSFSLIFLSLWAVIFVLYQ
Experiment: Inhibition of human Ecto-5'-nucleotidase transfected in COS7 cells preincubated for 10 mins followed by AMP addition measured after 10 mins
attributeMeasured: pIC50
FYI, pIC50 means -log10 of a concentration in mol per litre.

molecule | pIC50
COC1Oc2c(Cl)cc(Cl)cc2C(=O)/C1=C\Nc1cccc(S(N)(=O)=O)c1 (racemic) | 6.01
CCCCOC1Oc2ccccc2C(=O)/C1=C\Nc1cccc(S(N)(=O)=O)c1 (racemic) | 6.42
COC1Oc2ccccc2C(=O)/C1=C\Nc1ccccc1S(N)(=O)=O (racemic) | 5.72
CCCCOC1Oc2ccccc2C(=O)/C1=C\Nc1ccc(S(N)(=O)=O)cc1 (racemic) | 5.88

Kindly consider the entry below.
Request: Give a short answer stating reported pIC50 for COC1Oc2ccc(Cl)cc2C(=O)/C1=C\Nc1cccc(S(N)(=O)=O)c1 (racemic) .
Result: 6.25

====

Molecular target: Alkaline phosphatase, tissue-nonspecific isozyme (Bos taurus) (UniProt P09487)
Sequence (whole entry): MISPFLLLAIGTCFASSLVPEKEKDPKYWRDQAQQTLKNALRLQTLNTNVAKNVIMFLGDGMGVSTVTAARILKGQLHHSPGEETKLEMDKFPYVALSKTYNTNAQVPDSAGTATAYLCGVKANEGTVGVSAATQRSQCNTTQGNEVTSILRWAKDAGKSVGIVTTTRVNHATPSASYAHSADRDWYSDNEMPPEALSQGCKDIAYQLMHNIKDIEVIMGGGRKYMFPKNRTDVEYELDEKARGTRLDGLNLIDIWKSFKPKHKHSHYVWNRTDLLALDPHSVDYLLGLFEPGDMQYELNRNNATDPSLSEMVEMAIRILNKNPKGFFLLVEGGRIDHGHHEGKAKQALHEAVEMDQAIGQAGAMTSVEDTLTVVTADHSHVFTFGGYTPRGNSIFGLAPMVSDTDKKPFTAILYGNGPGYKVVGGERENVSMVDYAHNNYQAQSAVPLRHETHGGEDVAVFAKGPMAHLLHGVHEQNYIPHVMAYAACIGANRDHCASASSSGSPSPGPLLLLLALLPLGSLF
Assay: Inhibition of bovine tissue non-specific alkaline phosphatase at 0.2 mM preincubated for 3 to 5 mins followed by CDP-star substrate addition measured after 15 mins by luminescence assay
attributeMeasured: inhibition (%)
// return numeric value only (unit: %, not printed)

Record excerpt, results attached:
compound | units | inhibition
COC1Oc2ccccc2C(=O)/C1=C\Nc1cccc(S(N)(=O)=O)c1 (racemic) | % | 32.1
COC1Oc2ccc(Cl)cc2C(=O)/C1=C\Nc1cccc(S(N)(=O)=O)c1 (racemic) | % | 34.2
COC1Oc2ccc(Cl)cc2C(=O)/C1=C\Nc1ccccc1S(N)(=O)=O (racemic) | % | 29.9

Request: Give a short answer stating reported inhibition for COC1Oc2ccc(Cl)cc2C(=O)/C1=C\Nc1ccc(S(N)(=O)=O)cc1 (racemic) .
Result: 20.9

====

The following compounds are listed with their measured inhibition values.
Target: 5'-nucleotidase (Homo sapiens)
Test: Inhibition of human Ecto-5'-nucleotidase transfected in COS7 cells at 1 mM preincubated for 10 mins followed by AMP addition measured after 10 mins
Type: cell-based
Settings: COS-7
// return numeric value only (unit: %, not printed)

compound | measurement
COC1Oc2ccc(C)cc2C(=O)/C1=C\Nc1ccccc1S(N)(=O)=O (racemic) | 39.1

Request: Give a short answer stating reported inhibition for COC1Oc2ccc(C)cc2C(=O)/C1=C\Nc1cccc(S(N)(=O)=O)c1 (racemic) .
Result: 44.5

Request: Give a short answer stating reported inhibition for COC1Oc2ccc(F)cc2C(=O)/C1=C\Nc1cccc(S(N)(=O)=O)c1 (racemic) .
Result: 44.4

Request: Give a short answer stating reported inhibition for COC1Oc2ccc(C)cc2C(=O)/C1=C\Nc1ccc(S(N)(=O)=O)cc1 (racemic) .
Result: 47

Request: Give a short answer stating reported inhibition for COC1Oc2ccc(F)cc2C(=O)/C1=C\Nc1ccc(S(N)(=O)=O)cc1 (racemic) .
Result: 46.8

Request: Give a short answer stating reported inhibition for COC1Oc2ccc(F)cc2C(=O)/C1=C\Nc1ccccc1S(N)(=O)=O (racemic) .
Result: 48.2
